Assay: small molecules captured by biotinylated probe aFSTL3 – biochemical, small-molecule microarray, fluorescence 635/667, stem cell growth factor project, primary screen (AID 1064);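 also: measures binding of the biotinylated anti-FSTL3 antibody to printed compounds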
Details: higher = more signal
composite z-score of 0.2 or higher: Y. Under 0.2: N.

Compound | Label class
C[N+](C)(C)CCCC[C@@H]1NC(=O)[C@@H]2C[C@H](C(=O)NCCCCCCNC(=O)CS)[C@H](c3cccc(OCCO)c3)N2C1=O | N
CO[C@H]1O[C@H](CO)[C@@H](OC(=O)Nc2ccc(C(F)(F)F)cc2)[C@H](OC(=O)Nc2ccccc2)[C@@H]1OC(=O)Nc1ccccc1 | N
COc1ccc(C#Cc2ccc3c(c2)[C@]2(C(=O)N3)[C@H](c3ccc(OCCO)cc3)N3[C@H](c4ccccc4)[C@H](c4ccccc4)OC(=O)[C@H]3[C@@H]2C(=O)Nc2nc3ccccc3s2)cc1 | Y
CCCCC(=C=CC[C@H](O)c1ccccc1OCCO)C[C@H](O)c1cc(Cl)cc(Cl)c1O | N
O=C1[C@H]2C=C(Br)[C@H](C[C@@H]2OCCOCCO)[C@@]12CO2 | N
[N-]=[N+]=NCc1ccccc1C[C@]1(C(=O)NCc2ccccc2)COC(c2ccc(OCCCO)cc2)=N1 | N
O=C1O[C@@H](c2ccccc2)[C@@H](c2ccccc2)N2[C@@H](c3ccc(O)cc3)[C@]3(C(=O)Nc4ccc(C#CCCO)cc43)[C@@H](C(=O)N3CCCCCCC3)[C@H]12 | Y
COCC1C2CC[C@H]3C(OCc4ccc(F)cc4C(F)(F)F)OC[C@]4(C)[C@H]3C2=C(CN4C(=O)OC(C)(C)C)[C@H](C)C1COC (stereo partly drawn) | Y
